- assayProcedure: Microsomal Stability Assay, mouse liver microsomes
- Assay type: in vitro ADME
- conditionLabel: male, CD-1, pH 7.4; mouse liver microsomes 0.1 mg/mL, 0.1 uM compound
quantityName: microsomal CLint at 0.1 uM

Worked cases, answers included:
CN(C)CCOc1cnc(N[C@H]2CC[C@@H](Oc3nc(N4CCOCC4)cc4ncccc34)CC2)nc1
< 116 µL/min/mg
O=C(Nc1ccncc1)[C@H]1CC[C@@H](Oc2nc(N3CCOCC3)cc3ncccc23)CC1 [Compound 154e]
> 116 µL/min/mg

Problem: # get_value(readout='microsomal CLint at 0.1 uM', item= `CC(=O)NCCOc1cnc(N[C@H]2CC[C@@H](Oc3nc(N4CCOCC4)cc4ncccc34)CC2)nc1` )
Result: < 116 µL/min/mg
